The origin of these recorded values is ChEMBL document CHEMBL1154956.

# System: Cryptococcus neoformans
# assay-details: Antifungal activity against Cryptococcus neoformans by NCCLS broth microdilution method
# Assay type: functional
MIC90: recorded values
// note: answer is a bare numeric in µg/mL

Please review the following examples before continuing.
molecule CON=C1C2CC(C)CC1C(c1ccccc1F)NC2c1ccccc1F (stereo in doubt; 55b) , MIC90 observed: 4

Quick note, MIC90 for CC1CC2C(=NO)C(C1)C(c1ccccc1F)NC2c1ccccc1F (stereo in doubt; 49a) landed at 64

Continuing:
Reported MIC90 of CC1CC2C(=NO)C(C1)C(c1ccccc1Cl)NC2c1ccccc1Cl (stereo in doubt; 52b) : 64

For this molecule ( CON=C1C2CC(C)CC1C(c1ccccc1Cl)NC2c1ccccc1Cl (stereo in doubt; 58a) ), measured MIC90 is 16

molecule CON=C1C2CC(C)CC1C(c1ccccc1Cl)NC2c1ccccc1Cl (stereo in doubt; 58b) , MIC90 observed: 2

Summary for this molecule, CC1CC2C(=NO)C(C1)C(c1ccccc1F)NC2c1ccccc1F (stereo in doubt; 49b) : MIC90 is 16

Entry CON=C1C2CC(C)CC1C(c1ccccc1F)NC2c1ccccc1F (stereo in doubt; 55a) — recorded MIC90 = 16

Form field MIC90, entry CON=C1C2CC(C)CC1C(c1cccc(F)c1)NC2c1cccc(F)c1 (stereo in doubt; 56b) : 32

Value of MIC90 reported for the molecule CC1CC2C(=NO)C(C1)C(c1cccc(F)c1)NC2c1cccc(F)c1 (stereo in doubt; 50b) is 64
